Cited source for all entries: PubChem BioAssay (NCATS)

Experiment: qHTS Screen of the MIPE 4.0 Collection Against Ewings Sarcoma (TC71) (AID 1259253); note: nearly all actives have a fitted effect of over 40% in size
Conditions: TC71 Ewing sarcoma viability, CellTiter-Glo, 48 h; series mostly up to 45.8 µM
Records with an inconclusive call do not appear. Active and inactive are the calls of the source. Calls come from the whole dose curve; as a rule, active = well fitted inhibition curve with a large enough effect; inconclusive = small, poorly fitted or top-dose-only effect; inactive = no such curve, though single readings can be large or run the other way.
Possible outcomes: 1 (yes) for active, 0 (no) for inactive

Compound	Assigned label
COc1ccc2cc([S+]([O-])Cc3ncc(C)c(OC)c3C)nc2c1	0 (no)
CN[C@@H]1C[C@H]2O[C@@](C)([C@H]1OC)n1c3ccccc3c3c4c(c5c6ccccc6n2c5c31)C(=O)N[C@H]4O	1 (yes)
COc1ccc(CCC(=O)c2c(O)cc(O[C@@H]3O[C@H](CO)[C@@H](O)[C@H](O)[C@@H]3O[C@@H]3O[C@@H](C)[C@H](O)[C@@H](O)[C@@H]3O)cc2O)cc1O	1 (yes)
CCCc1nc(C(C)(C)O)c(C(=O)O)n1Cc1ccc(-c2ccccc2-c2nn[nH]n2)cc1	0 (no)
COc1cc(C)c(C=CC(C)=CC=CC(C)=CC(=O)O)c(C)c1C	0 (no)
C[C@@H](Oc1ccc2[nH]nc(C=Cc3cnn(CCO)c3)c2c1)c1c(Cl)cncc1Cl	1 (yes)
CC(C)C[C@H](NC(=O)[C@@H](NC(=O)c1cccc(-c2ccccc2)n1)[C@@H](C)O)B(O)O	1 (yes)
CCCCCN=C(N)NN=Cc1c[nH]c2ccc(OC)cc12	1 (yes)
Oc1cc2c(cc1O)C1c3ccc(O)c(O)c3OCC1(O)C2 (configuration not stated)	0 (no)
COc1cc(OC)c(NC(=O)Nc2cc(C)on2)cc1Cl	0 (no)
c1ccc(CNc2nc(NCc3ccccc3)c3ccccc3n2)cc1	1 (yes)
Cc1onc(-c2ccccc2)c1C(=O)N[C@@H]1C(=O)N2[C@@H](C(=O)O)C(C)(C)S[C@@H]12	0 (no)
CC(C=CC(=O)NO)=C[C@@H](C)C(=O)c1ccc(N(C)C)cc1	1 (yes)
CC(Cc1ccc(O)c(O)c1)(NN)C(=O)O (configuration not stated)	0 (no)
C=C1C(=O)O[C@H]2[C@@H]1CCC(C)=CCC[C@@]1(C)O[C@@H]21	1 (yes)
COc1ccc(S(=O)(=O)Nc2cccnc2Nc2ccc(O)cc2)cc1	1 (yes)
CCc1cc(C(C)=NOCc2ccc(C3CCCCC3)c(C(F)(F)F)c2)ccc1CN1CC(C(=O)O)C1	0 (no)
CCc1ccc(C(=O)Nc2cc(CN3CCN(C)CC3)cc(C(F)(F)F)c2)cc1C#Cc1cnc2ccnn2c1	1 (yes)
COc1cc(O)c2c(c1)C1OC1C[C@H](O)[C@H](O)C(=O)C=CC[C@H](C)OC2=O (some centres not stated)	1 (yes)
CCC(C(=O)O)C1CCC(C)C(C(C)C(O)C(C)C(=O)C(CC)C2OC3(C=CC(O)[C@@]4(CC[C@](C)(C5CC[C@@](O)(CC)C(C)O5)O4)O3)C(C)CC2C)O1 (some centres not stated)	1 (yes)
COc1cc(N2CCC(C(N)=O)CC2)ccc1Nc1nc(N)c(Cl)c(Nc2ccccc2S(=O)(=O)C(C)C)n1	1 (yes)
O=C(NCc1ccccc1)[C@H](Cc1ccccc1)NC(=O)[C@@H]1O[C@@H]1C(=O)NCCc1ccc(O)cc1	1 (yes)
O=C1CSC(=O)N1C(CCc1ccncc1)COc1ccc(-c2cccc([N+](=O)[O-])c2)cc1 (configuration not stated)	1 (yes)
C[C@H](NC(=O)C(C#N)=Cc1cccc(Br)n1)c1ccccc1	1 (yes)
Cc1ccc2nc(NCCN)c3ncc(C)n3c2c1	1 (yes)
COc1cc(C[C@@H](CO)[C@H](CO)Cc2ccc(O)c(OC)c2)ccc1O	1 (yes)
C[C@@H]1[C@H](C)CC[C@]2(C(=O)O)CC[C@]3(C)C(=CC[C@@H]4[C@@]5(C)C[C@@H](O)[C@H](O)[C@@](C)(CO)[C@H]5CC[C@]43C)[C@@H]12	0 (no)
O=C(c1ccc(F)cc1)N1CCC[C@H](c2nc(-c3ccc(F)cc3)no2)C1	0 (no)
CN(C)CC(=O)N1CCC(c2ccc(NC(=O)c3ncc(C#N)[nH]3)c(C3=CCCCC3)c2)CC1	1 (yes)
COc1cc2ncnc(Nc3cccc(Br)c3)c2cc1OC	1 (yes)
CCn1c(=O)c2c(nc(C=Cc3ccc(OC)c(OC)c3)n2C)n(CC)c1=O	0 (no)
COC1=C(OC)C(=O)C(CC=C(C)CCC=C(C)CCC=C(C)CCC=C(C)CCC=C(C)CCC=C(C)CCC=C(C)CCC=C(C)CCC=C(C)CCC=C(C)C)=C(C)C1=O	0 (no)

====

Test: qHTS of pediatric cancer cell lines to identify multiple opportunities for drug repurposing: Primary screen for NB-EBc1 cells (AID 1347095)
Conditions: NB-EBc1 neuroblastoma viability, CellTiter-Glo luminescence, 48 h; series mostly up to 46 µM
Results filed as inconclusive are left out. Activity calls are given as the source filed them. Calls follow the shape of the dose curve; as a rule, active = well fitted cell-killing curve with a large enough effect; inconclusive = small, poorly fitted or top-dose-only effect; inactive = no such curve, though single readings can be large or run the other way.
Possible outcomes: 1 for active, 0 for inactive

Compound	Assigned label
COc1cccc2c1C(=O)c1c(O)c3c(c(O)c1C2=O)C[C@@](O)(C(=O)CO)C[C@@H]3O[C@H]1C[C@H](N)[C@@H](O)[C@H](C)O1	1
Cc1cc(-c2nnc3n2CCCCC3)c(C)n1-c1ccccc1	0
N[C@H]1CN(c2c(F)cc3c(=O)c(C(=O)O)cn(C4C[C@@H]4F)c3c2Cl)CC12CC2 (stereo partly drawn)	0
Nc1nc(=O)n([C@H]2CSC(CO)O2)cc1F (stereo partly drawn)	0
CC(C(C)N1CC(=O)NC(=O)C1)N1CC(=O)NC(=O)C1 (stereo not drawn)	1
COc1cc(O)c2c(c1)C1OC1C[C@H](O)[C@H](O)C(=O)C=CC[C@H](C)OC2=O (stereo partly drawn)	1
CCC(C(=O)O)C1CCC(C)C(C(C)C(O)C(C)C(=O)C(CC)C2OC3(C=CC(O)[C@@]4(CC[C@](C)(C5CC[C@@](O)(CC)C(C)O5)O4)O3)C(C)CC2C)O1 (stereo partly drawn)	1
CC(=O)O[C@H]1C[C@@H]2CC[C@H]3[C@H]4C[C@H]([N+]5(C)CCCCC5)[C@@H](OC(C)=O)[C@@]4(C)CC[C@@H]3[C@@]2(C)C[C@H]1[N+]1(C)CCCCC1	0
CCCCOc1ccc(C(=O)Nc2ccc(F)cc2F)cc1	0
CCOC(=O)N1CCN([N+]([O-])=NOc2ccc([N+](=O)[O-])cc2C#N)CC1	1
CC(C=CC1=C(C)CCCC1(C)C)=CC=CC(C)=CC(=O)Nc1ccc(O)cc1	1
O=c1[nH]c(=O)n([C@H]2C[C@@H](O)[C@@H](CO)O2)cc1C=CBr	0
CC(Oc1ccc(O)cc1)(P(=O)(O)O)P(=O)(O)O	0
CO[C@@H]1[C@@H](O)[C@H](O)[C@@H](n2c3c(Cl)cccc3c3c4c(c5c6cccc(Cl)c6[nH]c5c32)C(=O)NC4=O)O[C@@H]1CO	1
Cc1onc(-c2ccccc2)c1C(=O)N[C@@H]1C(=O)N2[C@@H](C(=O)O)C(C)(C)S[C@@H]12	0
O=C(O)C[C@H](O)C[C@H](O)C=Cc1c(C2CC2)nc2ccccc2c1-c1ccc(F)cc1	1
CCCNS(=O)(=O)Nc1ncnc(OCCOc2ncc(Br)cn2)c1-c1ccc(Br)cc1	0
CN1C(C(=O)Nc2ccccn2)=C(O)c2sc(Cl)cc2S1(=O)=O	1

====

Experiment: Quantitative High-Throughput drug screen in 47 multiple myeloma cell lines against the NCATS MIPE library collection: OCIMY1_PLB cell viability assay (AID 1918979); note: nearly all actives have a fitted effect of over 35% in size;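 for viability: 100% = DMSO-only wells and 0% = cell-free media-only wells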
Settings: OCI-MY1 myeloma viability, CellTiter-Glo ATP, 48 h; series mostly up to 45.8 µM
Source text: PI: Beverly A. Mock Ph.D. Laboratory of Cancer Biology and Genetics, Center for Cancer Research, National Cancer Institute, National Institute of Health, Bethesda, Maryland […] 5; Detector; 425V; Luminescence; Viewlux PerkinElmer. […] 1. […] Briefly, the corresponding myeloma cell lines were screened in 1,536-well plates with 500 cells, 5-uL per well for inhibition of cell viability (assessed by measuring ATP levels with CellTiterGlo). […]
Results filed as inconclusive are left out. The source made the active and inactive calls. Calls follow the shape of the dose curve; as a rule, active = well fitted cell-killing curve with a large enough effect; inconclusive = small, poorly fitted or top-dose-only effect, or effect the other way; inactive = no such curve, though single readings can be large or run the other way.
Possible outcomes: active, inactive

Compound	Assigned label
OCCNC1CCCc2c1[nH]c1ccc(-c3ccccc3)cc21 (centres undefined)	active
Oc1cc2c(cc1O)C1c3ccc(O)c(O)c3OCC1(O)C2 (centres undefined)	inactive
CC[C@H]1OC(=O)[C@H](C)[C@@H](O[C@H]2C[C@@](C)(OC)[C@@H](O)[C@H](C)O2)[C@H](C)[C@@H](O[C@@H]2O[C@@H](C)C[C@H](N(C)C)[C@@H]2O)[C@](C)(O)C[C@@H](C)C(=O)[C@H](C)[C@@H](O)[C@]1(C)O	inactive
C=C[C@@H]1CN2CCC1C[C@H]2[C@H](O)c1ccnc2ccc(OC)cc12 (some centres undefined)	inactive

====

Assay: Quantitative High-Throughput drug screen in 47 multiple myeloma cell lines against the NCATS MIPE library collection: KMS12PE_JCRB cell viability assay (AID 1918972); note: nearly all actives have a fitted effect of over 30% in size;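 for viability: 100% = DMSO only wells and 0% = wells with media alone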
Conditions: KMS12PE myeloma viability, CellTiter-Glo ATP, 48 h; series mostly up to 45.8 µM
Results filed as inconclusive are left out. Active and inactive are the calls of the source. Calls come from the whole dose curve; as a rule, active = well fitted cell-killing curve with a large enough effect; inconclusive = small, poorly fitted or top-dose-only effect, or effect the other way; inactive = no such curve, though single readings can be large or run the other way.
Possible outcomes: 1 for active, 0 for inactive

Compound	Assigned label
C#CCC(Cc1cnc2nc(N)nc(N)c2n1)c1ccc(C(=O)N[C@@H](CCC(=O)O)C(=O)O)cc1 (stereo partly drawn)	0
COc1cccc2c1C(=O)c1c(O)c3c(c(O)c1C2=O)C[C@@](O)(C(=O)CO)C[C@@H]3O[C@H]1C[C@H](N)[C@H](OC2CCCCO2)[C@H](C)O1 (stereo partly drawn)	0
CN(C)c1ccc2cc(C(=O)N[C@@H](CCCN=C(N)CCl)C(=O)NCc3ccccc3)ccc2c1	1
N=c1ccn2c(n1)O[C@H]1[C@@H](O)[C@@H](CO)O[C@H]12	1
C=C(C)[C@@H]1CC[C@]2(C)CC[C@]3(C)[C@H](CC[C@@H]4[C@@]5(C)CC[C@H](O)C(C)(C)[C@H]5CC[C@]43C)[C@@H]12	0
Cc1ccc([N+](=O)[O-])cc1S(=O)(=O)N(C)N=Cc1cnc2ccc(Br)cn12	1
Cn1cc(C2=C(c3c4n(c5ccccc35)CCC(CN)C4)C(=O)NC2=O)c2ccccc21 (stereo not drawn)	1
C#C[C@]1(O)CC[C@@H]2[C@@H]3CCc4cc(O)ccc4[C@H]3CC[C@@]21C	1
C[C@@H](Oc1ccc2[nH]nc(C=Cc3cnn(CCO)c3)c2c1)c1c(Cl)cncc1Cl	0
CNC(=O)c1cccc(-c2ccc3c(N4CCOC[C@H]4C)nc(N4CCOC[C@H]4C)nc3n2)c1	1
CCCNS(=O)(=O)Nc1ncnc(OCCOc2ncc(Br)cn2)c1-c1ccc(Br)cc1	0
C[C@@H]1C(=O)O[C@H]2CC34[C@H]5C[C@@H](C(C)(C)C)C36[C@H](OC(=O)[C@@H]6O)O[C@@]4(C(=O)O5)[C@]21O (stereo partly drawn)	0
CC(O)(C#Cc1ccc2c(c1)N(c1nc(N)ncc1Cl)CC2)c1nccs1 (stereo not drawn)	1
CC(C(C)N1CC(=O)NC(=O)C1)N1CC(=O)NC(=O)C1 (stereo not drawn)	1
O=C(O)CCCCCC(=O)NN=C1CCCC1	0
Nc1ccn(C[C@@H](CO)OCP(=O)(O)O)c(=O)n1	0
NC(=O)c1ncn([C@@H]2O[C@H](CO)[C@@H](O)[C@@H]2O)c1O	0
Cn1cc(C=CC(=O)c2cccc(F)c2)cc1C=CC(=O)NO	1
